Target: T1, EsCas13d, nuclease-dead (Eubacterium siraeum, UniProt B0MS50, R295A;H300A;R849A;H854A)
T1 sequence: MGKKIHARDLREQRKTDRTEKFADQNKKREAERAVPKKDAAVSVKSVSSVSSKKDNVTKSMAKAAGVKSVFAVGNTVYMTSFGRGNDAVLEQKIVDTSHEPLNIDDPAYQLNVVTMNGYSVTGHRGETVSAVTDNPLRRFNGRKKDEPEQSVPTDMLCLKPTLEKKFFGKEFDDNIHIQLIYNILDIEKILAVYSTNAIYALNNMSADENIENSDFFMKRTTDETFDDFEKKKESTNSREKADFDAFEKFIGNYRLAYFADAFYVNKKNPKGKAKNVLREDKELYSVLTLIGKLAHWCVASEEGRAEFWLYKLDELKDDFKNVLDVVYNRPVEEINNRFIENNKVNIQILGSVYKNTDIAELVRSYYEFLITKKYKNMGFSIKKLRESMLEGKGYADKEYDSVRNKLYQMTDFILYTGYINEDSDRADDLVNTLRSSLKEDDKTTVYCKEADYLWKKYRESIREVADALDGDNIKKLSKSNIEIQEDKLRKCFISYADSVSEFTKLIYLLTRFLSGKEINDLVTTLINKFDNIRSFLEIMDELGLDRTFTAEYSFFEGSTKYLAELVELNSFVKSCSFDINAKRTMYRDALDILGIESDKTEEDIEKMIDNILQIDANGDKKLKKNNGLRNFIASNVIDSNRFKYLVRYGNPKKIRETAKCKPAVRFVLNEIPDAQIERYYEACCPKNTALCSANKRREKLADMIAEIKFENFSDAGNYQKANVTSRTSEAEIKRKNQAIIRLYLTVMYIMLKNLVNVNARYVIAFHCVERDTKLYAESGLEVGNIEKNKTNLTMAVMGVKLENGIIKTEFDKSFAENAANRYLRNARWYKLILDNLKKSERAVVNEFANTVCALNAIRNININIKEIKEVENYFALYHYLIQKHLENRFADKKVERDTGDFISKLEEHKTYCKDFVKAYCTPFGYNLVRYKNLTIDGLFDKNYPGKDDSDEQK
Assay: crRNA (strand 1, pre-loaded); Mg2+; 40 mM Tris-HCl pH 7.5, 150 mM NaCl, 6 mM MgCl2, 1 mM DTT, 0.1% Tween-20, 0.2 mg/ml BSA; 25 C; 10 min per concentration, then washed
Conditions: tags: His6-TwinStrep-SUMO cleaved; N-terminal SNAP kept (SNAP-Surface 488); label: 3' end held by stalled T7 RNA polymerase
Provide the reported pKd of each item.
// pKd here means minus log10 of the molar concentration (mol/L)

Suppose we examine the binder target 3 insG 3' of 6,insG 3' of 6 (mixed) RNA 1: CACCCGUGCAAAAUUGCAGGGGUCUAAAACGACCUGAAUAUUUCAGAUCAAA RNA 2: GGGAAUGGAUCCACAUCUACGAAUUCGUUUUUGAUCUGAAAUAUUCGGAGGUCUGCAGAUCGGAAGAGCACACGU ; what pKd value has been reported?
7.63

Which pKd is reported for this binder? target 2 MT 5'PFS GCG 3'PFS ACA (mixed) RNA 1: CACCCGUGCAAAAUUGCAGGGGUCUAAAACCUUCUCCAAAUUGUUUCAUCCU RNA 2: GGGAAUGGAUCCACAUCUACGAAUUCGCGAGGAUGAAACAAUUUGGAGAAGACAAGAUCGGAAGAGCACACGU
7.80

Looking for the measured pKd of target 2 MT 5'PFS GAG 3'PFS UCU (mixed) RNA 1: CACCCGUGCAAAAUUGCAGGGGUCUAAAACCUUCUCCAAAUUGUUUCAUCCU RNA 2: GGGAAUGGAUCCACAUCUACGAAUUCGAGAGGAUGAAACAAUUUGGAGAAGUCUAGAUCGGAAGAGCACACGU , can you help?
7.80

Consider the binder target 3 del6,del22 (mixed) RNA 1: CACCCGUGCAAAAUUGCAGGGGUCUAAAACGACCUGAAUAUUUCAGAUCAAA RNA 2: GGGAAUGGAUCCACAUCUACGAAUUCGUUUUGAUCUGAAAUAUUAGGUCUGCAGAUCGGAAGAGCACACGU and give its measured pKd.
7.71

What value of pKd has been reported for the following binder? target 3 C1U,U8G (mixed) RNA 1: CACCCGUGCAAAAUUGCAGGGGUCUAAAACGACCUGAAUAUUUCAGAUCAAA RNA 2: GGGAAUGGAUCCACAUCUACGAAUUCGUUUUUGAUCUGAAAUAGUCAGGUUUGCAGAUCGGAAGAGCACACGU
7.19

If you can, please state the reported pKd value of target 2 MT 5'PFS GGC 3'PFS AUG (mixed) RNA 1: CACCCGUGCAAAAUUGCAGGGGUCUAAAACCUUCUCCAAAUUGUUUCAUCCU RNA 2: GGGAAUGGAUCCACAUCUACGAAUUCGGCAGGAUGAAACAAUUUGGAGAAGAUGAGAUCGGAAGAGCACACGU .
7.82

Any idea what pKd was measured for target 1 U3G,A20C (mixed) RNA 1: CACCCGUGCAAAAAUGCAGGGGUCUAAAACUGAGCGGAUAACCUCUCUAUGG RNA 2: GGGAAUGGAUCCACAUCUACGAAUUCGUACCCUAGAGAGGUUAUCCGCGCACCGAGAUCGGAAGAGCACACGU ?
7.55

Fill blank: measured pKd of the binder target 3 G3U,A18G (mixed) RNA 1: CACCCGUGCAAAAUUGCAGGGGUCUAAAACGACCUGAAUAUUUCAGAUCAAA RNA 2: GGGAAUGGAUCCACAUCUACGAAUUCGUUUUUGGUCUGAAAUAUUCAGUUCUGCAGAUCGGAAGAGCACACGU is ____.
7.46

Item target 1 insA 3' of 22,insG 3' of 4 (mixed) RNA 1: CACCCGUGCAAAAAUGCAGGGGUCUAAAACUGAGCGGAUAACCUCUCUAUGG RNA 2: GGGAAUGGAUCCACAUCUACGAAUUCGUACACAUAGAGAGGUUAUCCGCGUCACCGAGAUCGGAAGAGCACACGU has what recorded pKd?
8.02

# lookup: pKd of target 1 insA 3' of 7,insC 3' of 5 (mixed) RNA 1: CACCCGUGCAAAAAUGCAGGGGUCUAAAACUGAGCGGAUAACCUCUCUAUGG RNA 2: GGGAAUGGAUCCACAUCUACGAAUUCGUACCAUAGAGAGGUUAUCACGCCUCACCGAGAUCGGAAGAGCACACGU
7.95

Form field: reported pKd of target 1 insC 3' of 13,insA 3' of 6 (mixed) RNA 1: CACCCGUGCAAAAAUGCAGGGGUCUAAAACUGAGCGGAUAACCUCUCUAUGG RNA 2: GGGAAUGGAUCCACAUCUACGAAUUCGUACCAUAGAGAGCGUUAUCCAGCUCACCGAGAUCGGAAGAGCACACGU
7.93

Given the binder target 1 A9U,C21A (mixed) RNA 1: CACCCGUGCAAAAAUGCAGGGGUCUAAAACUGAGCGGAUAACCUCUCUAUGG RNA 2: GGGAAUGGAUCCACAUCUACGAAUUCGUACAAUAGAGAGGUUUUCCGCUCACCGAGAUCGGAAGAGCACACGU , what is its reported pKd?
7.45

What measured pKd goes with target 1 C4G,A18U (mixed) RNA 1: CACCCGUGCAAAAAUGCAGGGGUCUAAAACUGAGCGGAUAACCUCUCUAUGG RNA 2: GGGAAUGGAUCCACAUCUACGAAUUCGUACCAUUGAGAGGUUAUCCGGUCACCGAGAUCGGAAGAGCACACGU ?
7.64

State the recorded pKd for this entry: target 2 MT 5'PFS UAU 3'PFS UUG (mixed) RNA 1: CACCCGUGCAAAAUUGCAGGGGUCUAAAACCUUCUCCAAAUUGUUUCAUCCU RNA 2: GGGAAUGGAUCCACAUCUACGAAUUCUAUAGGAUGAAACAAUUUGGAGAAGUUGAGAUCGGAAGAGCACACGU
7.64
